# assay_system: TNKS1 (Homo sapiens)
# assay_summary: TNKS1/PARP Biochemical Assay (TNKS1)
readout: IC50

Qu. Specify measured IC50 for Cc1cccc2c(=O)[nH]c(-c3ccc(N4CCC(N(C)C)CC4)nc3)cc12 .
Ans. < 20 nM

Qu. Specify measured IC50 for Cc1cccc2c(=O)[nH]c(-c3ccc(CN4CCNCC4C)cc3)cc12 (single isomer, unassigned) [IQ-051-3] .
Ans. < 50 nM

Qu. Specify measured IC50 for Cc1cccc2c(=O)[nH]c(-c3ccc(CN4CCCC4)cc3)cc12 .
Ans. < 50 nM

----------
# assay_system: TNKS1 (Homo sapiens, UniProt O95271)
# assay_summary: TNKS1/PARP Biochemical Assay (TNKS1)
// reported IC50 per item

Answered cases to consult:
Cc1cccc2c(=O)[nH]c(-c3ccc(CN4CCN(C(=O)OC(C)(C)C)CC4)cc3)cc12: < 500 nM
Cc1cccc2c(=O)[nH]c(-c3cc(F)c(C(=O)N4CC(O)C4)c(F)c3)cc12: < 20 nM
Cc1cccc2c(=O)[nH]c(-c3cnc(N4CCNCC4)c(F)c3)cc12: < 50 nM

Qu. Specify measured IC50 for Cc1cccc2c(=O)[nH]c(-c3cnc(C(=O)N4CCN(C)CC4)nc3)cc12 .
Ans. < 50 nM

Qu. Specify measured IC50 for COc1ccc(-c2cc3c(C)cccc3c(=O)[nH]2)nc1 [REF-8, reference compound] .
Ans. 39 nM

Qu. Specify measured IC50 for Cc1cccc2c(=O)[nH]c(-c3ccc(Cn4c(C)nc5ccccc54)cc3)cc12 .
Ans. < 500 nM

Qu. Specify measured IC50 for CN1CCN(C(=O)c2ccc(-c3cc4c(Cl)cccc4c(=O)[nH]3)cc2)CC1 .
Ans. < 50 nM

----------
# assay_system: TNKS1 (Homo sapiens, UniProt O95271)
# assay_summary: TNKS1/PARP Biochemical Assay (TNKS1)
pIC50: −log10 of the molar value.
readout: pIC50

Qu. Specify measured pIC50 for Cc1cccc2c(=O)[nH]c(-c3ccc(S(=O)(=O)N4CCNCC4)cc3)cc12 .
Ans. > 7.70

Qu. Specify measured pIC50 for Cc1cccc2c(=O)[nH]c(-c3ccc(CN4CCN(CC5CC5)CC4)nc3)cc12 .
Ans. > 6.30

Qu. Specify measured pIC50 for Cc1ccc(F)c2c(=O)[nH]c(-c3ccc(C(=O)N4CCN(C)CC4)cc3)cc12 .
Ans. > 7.70

Qu. Specify measured pIC50 for Cc1cccc2c(=O)[nH]c(-c3ccc(C(=O)N(C)CC4CCN(C)CC4)cc3)cc12 .
Ans. > 7.30

----------
# assay_system: TNKS1 (Homo sapiens)
# assay_summary: TNKS1/PARP Biochemical Assay (TNKS1)
readout: IC50

Cc1cc(F)cc2c(=O)[nH]c(-c3ccc(C(C)(C)C(=O)N4CC(O)C4)cc3)cc12 [IQ-218]: < 50 nM

Qu. Specify measured IC50 for Cc1cccc2c(=O)[nH]c(-c3ccc(CN4CCCCC4)cc3)cc12 [IQ-037] .
Ans. < 50 nM

Qu. Specify measured IC50 for Cc1cccc2c(=O)[nH]c(-c3ccc(C(=O)N(C)CC4CCN(C)C4)cc3)cc12 (stereo not shown) [IQ-204] .
Ans. < 20 nM

Qu. Specify measured IC50 for CC(C)(C)OC(=O)N1CCN(Cc2ccc(-c3cc4c(Br)cccc4c(=O)[nH]3)cc2)CC1 [IQ-149] .
Ans. < 50 nM

Data provenance is patent US9193689B2.
